Entry source: PubChem BioAssay (Tox21)

Biological target: Acetylcholinesterase (Homo sapiens)
Assay: Acetylcholinesterase (AChE) small molecule antagonists: colormetric cell-based qHTS assay (AID 1347395); further: nearly all actives have a fitted effect of over 30% in size
Settings: SH-SY5Y cells AChE activity, colorimetric (Ellman); series mostly up to 115 µM
Results filed as inconclusive are left out. Activity calls are given as the source filed them. The call rests on the fitted dose curve.
Returns: one label drawn from class 1 = active, class 0 = inactive

**Query** Hey, what did the test say about Cc1ccc(N(CCO)CCO)cc1 ?
**Result** class 0

**Query** Hey, what did the test say about Cc1cccc(C)n1 ?
**Result** class 0

**Query** Hey, what did the test say about Cc1nc2ccccn2c(=O)c1CCN1CCC(C(=O)c2ccc(F)cc2)CC1 ?
**Result** class 1

**Query** Hey, what did the test say about CC1(CO)CN(c2ccccc2)NC1=O (stereo not drawn) ?
**Result** class 0

**Query** Hey, what did the test say about CCCCCCCC/C=C/C(=O)O ?
**Result** class 0

**Query** Hey, what did the test say about CC(O)C1CCCCC1 (stereo not drawn) ?
**Result** class 0

**Query** Hey, what did the test say about CCOC(=N)CC(=O)OCC ?
**Result** class 0

**Query** Hey, what did the test say about CCCCCCCCC(=O)OCC(C)OC(=O)CCCCCCCC (stereo not drawn) ?
**Result** class 0
